- SYSTEM_TESTED: T1, Biotinylated human BSSL (human, UniProt P19835 21-753, Biotinylated on glycosacarides, 30-40 biotin/BSSL)
- T1 construct: hBSSL biotinylated in house; also called b-hBSSL; human BSSL-biotin
- T1 sequence: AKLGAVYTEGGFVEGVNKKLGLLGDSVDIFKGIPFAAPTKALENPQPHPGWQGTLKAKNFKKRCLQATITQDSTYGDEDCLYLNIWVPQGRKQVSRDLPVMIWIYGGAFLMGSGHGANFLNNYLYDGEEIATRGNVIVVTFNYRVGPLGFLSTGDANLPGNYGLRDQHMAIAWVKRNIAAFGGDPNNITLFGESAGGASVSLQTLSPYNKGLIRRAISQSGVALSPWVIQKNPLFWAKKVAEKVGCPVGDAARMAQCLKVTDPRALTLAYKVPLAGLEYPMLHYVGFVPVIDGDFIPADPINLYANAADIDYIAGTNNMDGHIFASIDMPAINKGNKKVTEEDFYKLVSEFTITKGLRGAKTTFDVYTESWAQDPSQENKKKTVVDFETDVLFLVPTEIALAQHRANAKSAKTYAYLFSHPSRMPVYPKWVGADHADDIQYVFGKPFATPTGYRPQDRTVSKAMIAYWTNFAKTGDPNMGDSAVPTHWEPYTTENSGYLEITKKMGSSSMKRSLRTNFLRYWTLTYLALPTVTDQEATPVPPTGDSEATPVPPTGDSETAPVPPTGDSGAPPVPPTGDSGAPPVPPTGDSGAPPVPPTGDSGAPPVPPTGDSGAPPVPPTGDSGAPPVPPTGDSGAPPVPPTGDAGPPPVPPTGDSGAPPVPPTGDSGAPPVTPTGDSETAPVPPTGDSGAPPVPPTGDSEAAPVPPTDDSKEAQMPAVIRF
- MEASUREMENT_DESCRIPTION: flow cytometry displacement assay; 1.5 ug antibody, 1 ug b-hBSSL
- Description: The 28 BSSL-specific hIgG4 antibodies and the five reference antibodies at different concentrations (ranging from 0.5 μg to 3.0 μg per reaction; see Table 10) were added to b-hBSSL (1 μg per reaction, see Table 2) in round-bottom polystyrene tubes, lx PBS (pH 7.4) was added to a final volume of 20 μl and the antibody/b-hBSSL mixtures were incubated for 30 min. at +4° C. to facilitate binding of antibodies to BSSL. […]
ASSAY_READOUT: percentage reduction of b-hBSSL binding to CD14+ monocytes (%)
Numbers only, in %.

{"columns": ["BINDER", "UNIT_NAME", "QUANTITATIVE_RESULT"],
 "data": [
  ["S-SL048-41 hIgG4 S228P (antibody, V domains shown, Tested as human IgG4 S228P) VH: QVQLVQSGAEVKKPGASVKVSCKASGYTFTSYNMHWVRQAPGQGLEWIGVIYPGDGATSYAQKFKGRVTMTRDTSTSTVYMELSSLRSEDTAVYYCARDYYGSSPLGYWGQGTLVTVSS VL: DIQMTQSPSSLSASVGDRVTITCRASSSISYMNWYQQKPGKAPKLLIYATSRLPSGVPSRFSGSGSGTDFTLTISSLQPEDFATYYCHQRSSSPTFGQGTKLEIK", "%", 51],
  ["S-SL048-125 hIgG4 S228P (antibody, V domains shown, Tested as human IgG4 S228P) VH: QVQLVQSGAEVKKPGASVKVSCKASGYTFTSYNMHWVRQAPGQGLEWIGVINPGDGATSYAQKFQGRVTMTRDTSTSTVYMELSSLRSEDTAVYYCARDYYGSSPLGYWGQGTLVTVSS VL: DIQMTQSPSSLSASVGDRVTITCRASSSISYLHWYQQKPGKAPKLLIYAASRLPSGVPSRFSGSGSGTDFTLTISSLQPEDFATYYCHQRSSYPTFGQGTKLEIK", "%", 9],
  ["S-SL048-79 hIgG4 S228P (antibody, V domains shown, Tested as human IgG4 S228P) VH: QVQLVQSGAEVKKPGASVKVSCKASGYTFTSYNMHWVRQAPGQGLEWMGVINPSDGATSYAQKFQGRVTMTRDTSTSTVYMELSSLRSEDTAVYYCARDYYGSSPLGYWGQGTLVTVSS VL: DIQMTQSPSSLSASVGDRVTITCSASQSISYLNWYQQKPGKAPKLLIYAASRLPSGVPSRFSGSGSGTDFTLTISSLQPEDFATYYCHQRSSYPTFGQGTKLEIK", "%", 20],
  ["S-SL048-81 hIgG4 S228P (antibody, V domains shown, Tested as human IgG4 S228P) VH: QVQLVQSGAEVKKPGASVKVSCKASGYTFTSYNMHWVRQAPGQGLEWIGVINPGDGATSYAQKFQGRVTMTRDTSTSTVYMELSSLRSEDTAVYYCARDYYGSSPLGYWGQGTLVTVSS VL: DIQMTQSPSSLSASVGDRVTITCRASSSISYMHWYQQKPGKAPKLLIYAASSLQSGVPSRFSGSGSGTDFTLTISSLQPEDFATYYCHQRSSSPTFGQGTKLEIK", "%", 31]
]}

Fill in the blank: the reported percentage reduction of b-hBSSL binding to CD14+ monocytes of S-SL048-116 hIgG4 S228P (antibody, V domains shown, also called mAb116) VH: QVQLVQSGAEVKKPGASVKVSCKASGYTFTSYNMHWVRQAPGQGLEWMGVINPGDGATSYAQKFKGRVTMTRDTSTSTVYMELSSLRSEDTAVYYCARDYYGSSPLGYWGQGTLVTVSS VL: DIQMTQSPSSLSASVGDRVTITCRASPSISYMNWYQQKPGKAPKLLIYATSSLASGVPSRFSGSGSGTDFTLTISSLQPEDFATYYCHQRSSSPTFGQGTKLEIKR is ____.
58
